method description: Cytotoxicity against HK-2 cells assessed as inhibition of cell growth incubated for 1 hr by MTT assay
Type: toxicity, cell-based
experimental parameters: human
Non-standard residues stand in square brackets, D forms with d. Residues, ends and D or L forms follow the SMILES beside them. Dip = N[C@H](C(=O)O)C(c1ccccc1)c1ccccc1
readout: IC50 at 1 h (µM)
Numbers only, in µM.

Below, 2 compounds whose answers are already recorded.
For the compound shown here, NCCCC[C@H](NC(=O)[C@@H](NC(=O)[C@H](Cc1c[nH]c2ccccc12)NC(=O)[C@H](CCCCN)NC(=O)[C@H](CCCCN)NC(=O)[C@H](Cc1c[nH]c2ccccc12)NC(=O)[C@H](Cc1c[nH]c2ccccc12)NC(=O)[C@H](CCCCN)NC(=O)[C@@H](N)CCCCN)C(c1ccccc1)c1ccccc1)C(N)=O [RUXOTEMITIDE] (H-KKWWKKW[Dip]K-NH2) , give the reported IC50 at 1 h. 78.4

For the compound shown here, CC(C)C[C@H](NC(=O)[C@H](CC(C)C)NC(=O)[C@H](CCCCN)NC(=O)[C@H](CCCCN)NC(=O)[C@H](CC(C)C)NC(=O)[C@H](CC(C)C)NC(=O)[C@H](CCCCN)NC(=O)[C@H](CCCCN)NC(=O)[C@H](CC(C)C)NC(=O)[C@H](CC(C)C)NC(=O)[C@H](CCC(=O)O)NC(=O)[C@H](CCCCN)NC(=O)[C@H](CC(C)C)NC(=O)[C@@H](N)CC(C)C)C(N)=O (H-LLKELLKKLLKKLL-NH2) , give the reported IC50 at 1 h. 21.4

Let us move to another entry and its IC50 at 1 h.
For the compound shown here, CC(C)C[C@H](NC(=O)[C@H](CC(C)C)NC(=O)[C@H](CCCCN)NC(=O)[C@H](CCCCN)NC(=O)[C@H](CC(C)C)NC(=O)[C@H](CC(C)C)NC(=O)[C@H](CCCCN)NC(=O)[C@H](CCCCN)NC(=O)[C@H](CC(C)C)NC(=O)[C@H](CC(C)C)NC(=O)[C@H](CCCCN)NC(=O)[C@H](CCCCN)NC(=O)[C@H](CC(C)C)NC(=O)[C@H](CC(C)C)NC(=O)[C@H](CCCCN)NC(=O)[C@@H](N)CCCCN)C(=O)N[C@@H](CCCCN)C(N)=O (H-KKLLKKLLKKLLKKLLK-NH2) , give the reported IC50 at 1 h. 8.47

---

method description: Therapeutic index, ratio of HC10 for mouse RBC to IC50 for cytotoxicity against RG cells (unknown origin)
Type: toxicity, cell-based
experimental parameters: mouse RBC and RG cells, read-out: TI
Residues, ends and D or L forms follow the SMILES beside them.
readout: selectivity ratio
Numbers only.

Below, 2 molecules whose answers are already recorded.
For the molecule shown here, CC(C)C[C@H](NC(=O)[C@H](CC(C)C)NC(=O)[C@H](CCCCN)NC(=O)[C@H](CCCCN)NC(=O)[C@H](CC(C)C)NC(=O)[C@H](CC(C)C)NC(=O)[C@H](CCCCN)NC(=O)[C@H](CCCCN)NC(=O)[C@H](CC(C)C)NC(=O)[C@H](CC(C)C)NC(=O)[C@H](CCCCN)NC(=O)[C@H](CCCCN)NC(=O)[C@H](CC(C)C)NC(=O)[C@H](CC(C)C)NC(=O)[C@H](CCCCN)NC(=O)[C@@H](N)CCCCN)C(=O)N[C@@H](CCCCN)C(N)=O (H-KKLLKKLLKKLLKKLLK-NH2) , give the reported selectivity ratio. 1.11

For the molecule shown here, CC(C)C[C@H](NC(=O)[C@H](CC(C)C)NC(=O)[C@H](CCCCN)NC(=O)[C@H](CCCCN)NC(=O)[C@H](CC(C)C)NC(=O)[C@H](CC(C)C)NC(=O)[C@H](CCCCN)NC(=O)[C@H](CCCCN)NC(=O)[C@H](CC(C)C)NC(=O)[C@H](CC(C)C)NC(=O)[C@H](CCCCN)NC(=O)[C@H](CC(C)C)NC(=O)[C@H](CC(C)C)NC(=O)[C@@H](N)CCCCN)C(N)=O (H-KLLKLLKKLLKKLL-NH2) , give the reported selectivity ratio. 0.219

New cases:
For the molecule shown here, CC(C)C[C@H](NC(=O)[C@H](CCCCN)NC(=O)[C@H](CCCCN)NC(=O)[C@H](CC(C)C)NC(=O)[C@H](CC(C)C)NC(=O)[C@H](CCCCN)NC(=O)[C@H](CCCCN)NC(=O)[C@H](CC(C)C)NC(=O)[C@H](CC(C)C)NC(=O)[C@H](CCCCN)NC(=O)[C@H](CCCCN)NC(=O)[C@H](CC(C)C)NC(=O)[C@@H](N)CC(C)C)C(=O)N[C@@H](CC(=O)O)C(N)=O (H-LLKKLLKKLLKKLD-NH2) , give the reported selectivity ratio. 11.4
